Here the recorded IC50 is given for each entry.
Tested on: PC-9 cells (EGFR Ex19Del)
Test: Potency Assay: pERK (SOS1 pERK IC50 Assay, AlphaLISA SureFire Ultra p-ERK1/2)
Type: cell-based
Settings: Homo sapiens; PC-9 cells (EGFR Ex19Del), 1 hour incubation, AlphaLISA p-ERK1/2; read-out: SOS1 pERK IC50

- C[C@@H](Nc1nc(Cl)nc2c1CN(C(=O)c1ncccn1)C2)c1cc(N)cc(C(F)(F)F)c1: < 1 µM
- C[C@@H](Nc1nc(Cl)nc2c1CN(C(=O)C13CCC(CC1)O3)CC2)c1cc(N)cc(C(F)(F)F)c1: > 1 µM
- C[C@@H](Nc1nc(Cl)nc2c1CN(C(=O)N1CCNc3ncncc31)C2)c1cccc(C(F)(F)F)c1: < 1 µM
- C[C@@H](Nc1nc(Cl)nc2c1CN(C(=O)N1CCC3(CCN3)CC1)C2)c1cccc(C(F)F)c1F: < 1 µM
- Cc1nc2c(c(N[C@H](C)c3cc(N)cc(C(F)(F)F)c3)n1)CN(S(=O)(=O)N1CCOCC1)C2: < 1 µM

[in] Under PC-9 cells (EGFR Ex19Del): IC50 value of C[C@@H](Nc1nc(Cl)nc2c1CN(C(=O)c1cnccn1)CC2)c1cc(N)cc(C(F)(F)F)c1 ?
[out] > 1 µM

[in] Write down the reported IC50 of C[C@@H](Nc1nc(Cl)nc2c1CN(C(=O)C1(O)COC1)C2)c1cccc(C(F)(F)F)c1 , test system: PC-9 cells (EGFR Ex19Del).
[out] < 1 µM

---

Target: SOS1 catalytic domain (residues 564-1049) (Homo sapiens, UniProt Q07889)
Sequence (Q07889 564-1049): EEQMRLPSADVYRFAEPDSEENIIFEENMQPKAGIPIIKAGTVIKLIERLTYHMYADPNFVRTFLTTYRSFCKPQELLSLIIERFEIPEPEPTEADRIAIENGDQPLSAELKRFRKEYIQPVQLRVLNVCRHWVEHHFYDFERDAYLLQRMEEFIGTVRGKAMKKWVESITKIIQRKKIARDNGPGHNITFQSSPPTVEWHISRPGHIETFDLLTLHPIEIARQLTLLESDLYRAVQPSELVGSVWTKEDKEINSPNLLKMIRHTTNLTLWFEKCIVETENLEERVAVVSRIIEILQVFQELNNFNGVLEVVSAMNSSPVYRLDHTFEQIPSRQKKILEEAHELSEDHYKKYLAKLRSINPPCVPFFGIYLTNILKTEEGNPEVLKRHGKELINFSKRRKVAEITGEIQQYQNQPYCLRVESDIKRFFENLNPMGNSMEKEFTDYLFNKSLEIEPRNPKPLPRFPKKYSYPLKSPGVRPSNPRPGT
Assay: Mode of Action Assay: inhibition of SOS1 nucleotide exchange activity (SOS1 TR-FRET IC50 Assay)
pIC50: −log10 of the molar value.
parameter.measured: pIC50

* C[C@@H](Nc1nc(Cl)nc2c1CN(C(=O)NC1CC[C@H](N)C1)C2)c1cc(N)cc(C(F)(F)F)c1 (stereo partly drawn) [Example 150] | > 6.00
* COC1CN([C@@H]2CCc3ncnc(N[C@H](C)c4cccc(C(F)F)c4F)c3C2)C1 [Example 443] | < 6.00
* C[C@@H](Nc1nc(Cl)nc2c1CN(C(=O)N1CCOCC1)C2)c1cccc(C(F)(F)COC2CC2)c1 [Example 531] | > 6.00

[in] Could you share what pIC50 was measured for C[C@@H](Nc1nc(Cl)nc2c1CN(C(=O)N1CCOCC1)C2)c1cccc(NC2CC2)c1 [Example 520] , tested on SOS1 catalytic domain (residues 564-1049) (Homo sapiens, UniProt Q07889)?
[out] < 6.00

[in] # returns recorded pIC50 (system: SOS1 catalytic domain (residues 564-1049) (Homo sapiens, UniProt Q07889)) for C[C@@H](Nc1nc(Cl)nc2c1CN(C(=O)N1CCOCC1)C2)c1cccc(N2CC(O)C2)c1 [Example 518]
[out] > 6.00

[in] Lab request: please report pIC50 under test system SOS1 catalytic domain (residues 564-1049) (Homo sapiens, UniProt Q07889) for C[C@@H](Nc1nc(Cl)nc2c1CN(C(=O)N1CC3COCC(C1)N3)C2)c1cccc(C(F)F)c1F [Example 385]
[out] > 6.00

[in] Form entry - test system: SOS1 catalytic domain (residues 564-1049) (Homo sapiens, UniProt Q07889); read-out: pIC50; compound: C[C@@H](Nc1ncnc2c1CC(N1CC3(COC3)C1)CC2)c1cccc(C(F)(F)CO)c1 (stereo partly drawn) [Example 439]
[out] > 6.00

[in] State its pIC50 on SOS1 catalytic domain (residues 564-1049) (Homo sapiens, UniProt Q07889): C[C@@H](Nc1nc(Cl)nc2c1CN(C(=O)C1(F)CCOCC1)C2)c1cc(N)cc(C(F)(F)F)c1 [Example 256]
[out] > 6.00

[in] I'm curious: which pIC50 was measured for C[C@@H](Nc1nc(Cl)nc2c1CN(C(=O)C1(C)CCNCC1)C2)c1cccc(C(F)(F)F)c1 [Example 314] tested on SOS1 catalytic domain (residues 564-1049) (Homo sapiens, UniProt Q07889)?
[out] > 6.00

[in] GET /values?readout=pIC50&system=SOS1 catalytic domain (residues 564-1049) (Homo sapiens, UniProt Q07889)&item= C[C@@H](Nc1ncnc2c1CN(C(=O)N1CCOCC1)C2)c1cccc(C(F)F)c1F [Example 389]
[out] > 6.00

[in] Notebook entry, SOS1 catalytic domain (residues 564-1049) (Homo sapiens, UniProt Q07889) assay: pIC50 of C[C@@H](Nc1nc(Cl)nc2c1CN(C(=O)N1CCN(C)c3ncccc31)C2)c1cccc(C(F)F)c1F [Example 426] = ?
[out] > 6.00

[in] Please provide the recorded pIC50 for C[C@@H](Nc1nc(Cl)nc2c1CN(C(=O)N1CCOCC1)C2)c1cccc(C(F)(F)COC2CC2)c1F [Example 469] , tested on SOS1 catalytic domain (residues 564-1049) (Homo sapiens, UniProt Q07889).
[out] > 6.00

[in] Requested read-out pIC50, target or system SOS1 catalytic domain (residues 564-1049) (Homo sapiens, UniProt Q07889), entry C[C@@H](Nc1nc(Cl)nc2c1CN(C(=O)C1(F)CCN(C)CC1)C2)c1cccc(C(F)F)c1F [Example 326]
[out] > 6.00

[in] Item: C[C@@H](Nc1nc(Cl)nc2c1CN(C(=O)c1ccncn1)CC2)c1cc(N)cc(C(F)(F)F)c1 [Example 233] Test system: SOS1 catalytic domain (residues 564-1049) (Homo sapiens, UniProt Q07889) Read-out: pIC50 Value: ?
[out] < 6.00

[in] I'm curious: which pIC50 was measured for COC(C(=O)N1Cc2nc(Cl)nc(N[C@H](C)c3cc(N)cc(C(F)(F)F)c3)c2C1)C1CCOC1 (stereo partly drawn) [Example 259] tested on SOS1 catalytic domain (residues 564-1049) (Homo sapiens, UniProt Q07889)?
[out] > 6.00

---

Test system: PC-9 cells (EGFR Ex19Del)
Assay: Potency Assay: pERK (SOS1 pERK IC50 Assay, AlphaLISA SureFire Ultra p-ERK1/2)
Type: cell-based
Conditions: Homo sapiens; PC-9 cells (EGFR Ex19Del), 1 hour incubation, AlphaLISA p-ERK1/2; read-out: SOS1 pERK IC50
pIC50: −log10 of the molar value.
parameter.measured: pIC50

Answered examples (3):
• C[C@@H](Nc1nc(Cl)nc2c1CN(C(=O)CC1COCCN1)C2)c1cccc(C(F)F)c1F (stereo partly shown) = > 6.00
• C[C@@H](Nc1nc(Cl)nc2c1CN(C(=O)N1CCC(O)CC1)C2)c1cccc(C(F)F)c1F = > 6.00
• COC1(C(=O)N2Cc3nc(Cl)nc(N[C@H](C)c4cccc(C(F)(F)F)c4)c3C2)CCOCC1 = > 6.00

We now examine a further compound.
[in] Sample C[C@@H](Nc1nc(Cl)nc2c1CN(S(=O)(=O)N1CCOCC1)CC2)c1cccc(C(F)(F)F)c1 — what was its pIC50?
[out] < 6.00

---

Test system: PC-9 cells (EGFR Ex19Del)
Experiment: Potency Assay: pERK (SOS1 pERK IC50 Assay, AlphaLISA SureFire Ultra p-ERK1/2)
Type: cell-based
Settings: Homo sapiens; PC-9 cells (EGFR Ex19Del), 1 hour incubation, AlphaLISA p-ERK1/2; read-out: SOS1 pERK IC50
// IC50 lookup, one value per entry

The examples below pair each entry with its known result.
* C[C@@H](Nc1nc(Cl)nc2c1CN(C(=O)C1(C)CCOCC1)C2)c1cccc(C(F)(F)CO)c1 | < 1 µM
* C[C@@H](Nc1nc(Cl)nc2c1CN(C(=O)N1C3CCC1COC3)C2)c1cccc(C(F)F)c1F | < 1 µM
* COC1(C(=O)N2Cc3nc(CN)nc(N[C@H](C)c4cccc(C(F)(F)F)c4)c3C2)CCOCC1 | < 1 µM

Let's switch to this compound now.
[in] Quick check: IC50 on PC-9 cells (EGFR Ex19Del), item C[C@@H](Nc1nc(Cl)nc2c1CN(C(=O)CN1CCOCC1)C2)c1cccc(C(F)F)c1F ?
[out] < 1 µM

---

Test system: PC-9 cells (EGFR Ex19Del)
Experiment: Potency Assay: pERK (SOS1 pERK IC50 Assay, AlphaLISA SureFire Ultra p-ERK1/2)
Assay type: cell-based
Settings: Homo sapiens; PC-9 cells (EGFR Ex19Del), 1 hour incubation, AlphaLISA p-ERK1/2; read-out: SOS1 pERK IC50
pIC50: −log10 of the molar value.
Listing of recorded pIC50 by entry.

[in] Query for PC-9 cells (EGFR Ex19Del): what pIC50 does the record show for CNC1(C(=O)N2Cc3nc(Cl)nc(N[C@H](C)c4cccc(C(F)F)c4F)c3C2)CCOC1 (stereo partly shown) [Example 334] ?
[out] > 6.00

[in] Return pIC50 measured with PC-9 cells (EGFR Ex19Del) given this molecule: C[C@@H](Nc1nc(Cl)nc2c1CN(C(=O)N1CC3(CNC3)C1)C2)c1cccc(C(F)F)c1F [Example 393]
[out] < 6.00
